B1: r16_88_TrROS_Hall (parent)
chain: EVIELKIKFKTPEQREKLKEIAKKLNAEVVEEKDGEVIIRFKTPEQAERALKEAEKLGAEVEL

- Variants of: B1
- assay name: folding stability dG (cDNA display proteolysis); higher = more stable
- stated conditions: PBS, room temperature
So I've got a bunch of variants here, and I need their folding stability dG values.
Report only the number, with the unit kcal/mol understood.

Data point: A50I ; folding stability dG = 4.4

Data point: R40W ; folding stability dG = 4.77

Data point: A47I ; folding stability dG = 4.51

Data point: L63P ; folding stability dG = 4.69

Data point: T11A ; folding stability dG = 4.39

Data point: G58F ; folding stability dG = 4.24

Data point: K24W ; folding stability dG = 4.77

Data point: E36N ; folding stability dG = 4.24

Data point: E31Q ; folding stability dG = 4.57

Data point: E28W ; folding stability dG = 4.53

Data point: E53F ; folding stability dG = 4.49

Data point: E60L ; folding stability dG = 4.21

Data point: E36H ; folding stability dG = 4.68

Data point: V30T ; folding stability dG = 4.39

Data point: E28F ; folding stability dG = 4.17

Data point: E53L ; folding stability dG = 4.61

Data point: K10L ; folding stability dG = 4.29

Data point: A47D ; folding stability dG = 3.16

Data point: F41I ; folding stability dG = 4.16

Data point: V61H ; folding stability dG = 4.39

Data point: E20I ; folding stability dG = 4.45

Data point: A50M ; folding stability dG = 4.3

Reference source for all entries: the MegaScale stability set (Tsuboyama et al. 2023)
